Tested on: apyrase
Method notes: Screen for apyrase inhibitors (Method 1, in vitro phosphate-release absorbance assay)
Assay type: biochemical
Test context: inhibitor conc at 1 mM stock, 1 hr room temperature, absorbance 630 nm; rounded average of two assay results
Procedure: Apyrase inhibitors useful as enhancers of pesticidal activity are assessed using an in vitro assay. […]
Metric name: % Inhibition of Apyrase (%)
Numbers only, in %.

Please review the following examples before continuing.
# Compound, Target or system, Scale unit, Value reported
rows = [
    ("COc1ccccc1NS(=O)(=O)c1cccc(NC(=O)c2cncc(Br)c2)c1", "apyrase", "%", 14),
    ("O=C(Nc1ccccc1NS(=O)(=O)c1ccc(F)cc1)c1cccc(S(=O)(=O)C(F)(F)F)c1", "apyrase", "%", 58),
    ("O=C(Nc1cccc(C(F)(F)F)c1)c1cccc(NS(=O)(=O)c2ccc(Cl)nc2)c1", "apyrase", "%", 55),
]

Record % Inhibition of Apyrase for all entries; do not skip any.
1. COc1ccc(NC(=O)c2ccc(S(=O)(=O)Nc3cccc(C(F)(F)F)c3)cc2)cc1OC
2. O=C(Nc1cccc(S(=O)(=O)Nc2ccccc2Cl)c1)c1cnccn1
3. Cn1cc(O)nc1NC(=O)c1cccc(S(=O)(=O)Nc2ccc(Br)cc2)c1 [I-272]
4. COc1ccccc1NC(=O)c1ccc(S(=O)(=O)N(C)c2ccccc2OC)cc1
5. COc1ccc(NC(=O)c2cccc(S(=O)(=O)Nc3ccc4c(c3)OCO4)c2)cc1
6. N#Cc1cccc(NC(=O)c2ccc(S(=O)(=O)Nc3ccccc3Cl)cc2)c1
7. Cc1cc(NC(=O)c2cccc(NS(=O)(=O)c3ccc4c(c3)OCCO4)c2)no1

1: 38; 2: 40; 3: 52; 4: 53; 5: 44; 6: 78; 7: 68

Record % Inhibition of Apyrase for all entries; do not skip any.
1. CC1Cc2ccccc2N1S(=O)(=O)c1cccc(C(=O)Nc2ccccc2OC(F)(F)F)c1 (centres unmarked)
2. O=C(Nc1ccc(S(=O)(=O)Nc2cccc(C(F)(F)F)c2)cc1)c1cc([N+](=O)[O-])cc([N+](=O)[O-])c1
3. O=C(Nc1cccc(S(=O)(=O)Nc2ccccc2)c1)c1cccc(Cl)n1
4. O=C(Nc1ccc(S(=O)(=O)NC2CC2)cc1)c1cccc(S(=O)(=O)N2CCc3ccccc32)c1
5. O=C(c1ccc(NS(=O)(=O)c2ccc(Cl)c([N+](=O)[O-])c2)cc1)N1CCCc2ccccc21
6. CCCCc1nnc(NC(=O)c2cccc(NS(=O)(=O)c3ccc(C)c(F)c3)c2)s1
7. CCCNC(=O)CN(CCC)C(=O)c1cccc(S(=O)(=O)Nc2ccc(Br)cc2)c1

1: 58; 2: 62; 3: 56; 4: 58; 5: 55; 6: 53; 7: 11

---

Test system: apyrase
Method notes: Screen for apyrase inhibitors (Method 1, in vitro phosphate-release absorbance assay)
Assay type: biochemical
Test context: inhibitor conc at 1 mM stock, 1 hr room temperature, absorbance 630 nm; rounded average of two assay results
Would you mind telling me the reported % Inhibition of Apyrase of each entry?
Give bare numbers, in %.

Please review the following examples before continuing.
# Compound, Target or system, % Inhibition of Apyrase [%]
rows = [
    ("O=C(Nc1ccc2c(c1)OCCO2)c1ccc(C(=O)Nc2ccc3c(c2)OCCO3)cc1 [I-875]", "apyrase", 55),
    ("CC1Cc2ccccc2N1S(=O)(=O)c1cccc(C(=O)Nc2ccc(S(=O)(=O)N(C)C)cc2)c1 (centres unmarked) [I-526]", "apyrase", 55),
    ("Cc1cccc(NC(=O)c2cc(S(=O)(=O)Nc3cccc(C)c3)ccc2Cl)c1 [I-518]", "apyrase", 56),
    ("O=C(Nc1ccc2c(c1)OCO2)c1ccc(S(=O)(=O)Nc2ccccc2Cl)cc1 [I-388]", "apyrase", 63),
    ("O=C(Nc1ccc(OC(F)F)c(Cl)c1)c1ccccc1S(=O)(=O)N1CCCCC1 [I-354]", "apyrase", 43),
    ("COc1ccc(S(=O)(=O)N2CCc3ccccc32)cc1C(=O)Nc1ccc(OC(F)F)c(Cl)c1 [I-440]", "apyrase", 62),
    ("Cc1cc(F)ccc1NC(=O)c1ccc(S(=O)(=O)Nc2cccc(C(F)(F)F)c2)cc1 [I-183]", "apyrase", 67),
    ("COc1ccc(N(C)S(=O)(=O)c2cccc(C(=O)Nc3ccc(Br)cc3)c2)cc1 [I-267]", "apyrase", 58),
]

Record % Inhibition of Apyrase for all entries; do not skip any.
1. N#Cc1ccccc1S(=O)(=O)Nc1cccc(C(=O)Nc2cccc(C(F)(F)F)c2)c1 [I-229]
2. Cc1ccc(C)c(S(=O)(=O)Nc2ccc(C(=O)Nc3ccc4c(c3)OCO4)cc2)c1 [I-929]
3. CNC(=O)c1ccc(NC(=O)c2ccc(S(=O)(=O)Nc3ccc(C)cc3)cc2)cc1 [I-874]
4. Cc1nc2ccc(NC(=O)c3ccc(S(=O)(=O)N4CCCc5ccccc54)cc3)cc2s1 [I-889]

1: 66; 2: 55; 3: 56; 4: 39

Record % Inhibition of Apyrase for all entries; do not skip any.
1. O=C(Nc1ccc2c(c1)OCCCO2)c1cccc(S(=O)(=O)N2CCc3ccccc32)c1 [I-609]
2. O=C(Nc1ccc(S(=O)(=O)Nc2cccc(C(F)(F)F)c2)cc1)c1cccc(F)c1 [I-998]
3. O=C(Nc1cccc(Br)c1)c1cccc(S(=O)(=O)Nc2ccc3c(c2)OCO3)c1 [I-186]
4. COc1ccc(N(C)S(=O)(=O)c2cccc(C(=O)N3CCc4ccccc43)c2)cc1 [I-540]
5. CCOC(=O)c1sc(NC(=O)c2cccc(S(=O)(=O)Nc3ccccc3F)c2)cc1C [I-432]
6. O=C(Nc1ccc2c(c1)OCCCO2)c1cccc(S(=O)(=O)Nc2ccc3c(c2)OCO3)c1 [I-258]
7. O=C(NCC(=O)N1CCCCC1)c1cccc(S(=O)(=O)Nc2ccc(Br)cc2)c1 [I-281]

1. 13
2. 34
3. 72
4. 54
5. 66
6. 61
7. 39

Record % Inhibition of Apyrase for all entries; do not skip any.
1. O=C(c1cc(S(=O)(=O)Nc2ccc(Cl)cc2)ccc1Cl)N1CCc2ccccc21 [I-490]
2. O=C(Nc1ccc(S(=O)(=O)Nc2ccccc2Cl)cc1)c1ccc(Cl)c(Cl)c1 [I-982]
3. COc1ccc2c(c1)CCCN2C(=O)c1cccc(S(=O)(=O)Nc2ccccc2F)c1 [I-561]
4. CN(c1ccccc1)S(=O)(=O)c1ccccc1C(=O)Nc1ccc2c(c1)OCO2 [I-809]
5. COc1ccc2c(c1)CCCN2C(=O)c1ccc(S(=O)(=O)N2CCCc3ccccc32)cc1 [I-866]

1. 58
2. 57
3. 51
4. 77
5. 58

---

Test system: apyrase
Method notes: Screen for apyrase inhibitors (Method 1, in vitro phosphate-release absorbance assay)
Type: biochemical
Test context: inhibitor conc at 1 mM stock, 1 hr room temperature, absorbance 630 nm; rounded average of two assay results
Give Y when the value for % Inhibition of Apyrase is at least 60%. Give N when it is less.

# Smiles structure, Group
data = [
    ("CN(C(=O)c1ccccc1S(=O)(=O)N(C)c1ccccc1)c1ccccc1", "N"),
    ("Cc1cccc(NC(=O)c2cccc(S(=O)(=O)Nc3ccc4c(c3)OCO4)c2)c1", "N"),
    ("COc1cccc(S(=O)(=O)Nc2ccc(C(=O)Nc3cccc(C(F)(F)F)c3)cc2)c1", "N"),
    ("O=C(Nc1ccccc1NS(=O)(=O)c1ccc(F)cc1)c1ccc(Cl)cc1", "N"),
    ("O=C(Nc1cccc(F)c1)c1ccc(NS(=O)(=O)c2ccccc2)cc1", "Y"),
]

# bool: % Inhibition of Apyrase of Cc1ccccc1NC(=O)c1cccc(S(=O)(=O)Nc2ccc3c(c2)OCO3)c1 >= 60%
Y

# bool: % Inhibition of Apyrase of O=C(Nc1cccc(S(=O)(=O)Nc2ccc(Cl)cc2)c1)c1ccsc1 >= 60%
N

# bool: % Inhibition of Apyrase of O=C(Nc1ccc(F)cc1Cl)c1ccc(S(=O)(=O)Nc2ccc(SC(F)F)cc2)cc1 >= 60%
Y

---

System: apyrase
Method notes: Screen for apyrase inhibitors (Method 1, in vitro phosphate-release absorbance assay)
Type: biochemical
Test context: inhibitor conc at 1 mM stock, 1 hr room temperature, absorbance 630 nm; rounded average of two assay results
Experimental: Apyrase inhibitors useful as enhancers of pesticidal activity are assessed using an in vitro assay. […]
Would you mind telling me the reported % Inhibition of Apyrase of each entry?
Numbers only, in %.

Please review the following examples before continuing.
# Compound, Value reported
data = [
    ("CCCOc1ccc(C(=O)Nc2cccc(NS(=O)(=O)c3ccc(C)c(C)c3)c2)cc1OC [I-348]", 48),
    ("COc1cccc(C(=O)Nc2ccc(S(=O)(=O)Nc3ccccc3OC)cc2)c1 [I-973]", 63),
    ("O=C(Nc1ccc(F)c([N+](=O)[O-])c1)c1ccc(S(=O)(=O)Nc2ccc(Cl)cc2)cc1 [I-4]", 73),
    ("Cc1ccc(C(=O)Nc2cccc([N+](=O)[O-])c2)cc1S(=O)(=O)Nc1ccc(C(=O)O)cc1 [I-45]", 13),
    ("COc1cc(OC)c(NS(=O)(=O)c2cc(C(=O)Nc3ccc(OC(F)(F)F)cc3)ccc2C)cc1Cl [I-530]", 55),
]

Record % Inhibition of Apyrase for all entries; do not skip any.
1. O=C(NC12CC3CC(CC(C3)C1)C2)c1cccc(S(=O)(=O)Nc2ccc(Br)cc2)c1 [I-240]
2. COc1ccc([N+](=O)[O-])cc1NC(=O)c1cccc(S(=O)(=O)Nc2ccc(Cl)cc2)c1 [I-254]
3. CCOC(=O)c1c(NC(=O)c2cccc(S(=O)(=O)Nc3ccc(Cl)cc3)c2)sc2c1CCCC2 [I-506]
4. Cc1ccc(NC(=O)c2cccc(S(=O)(=O)N(C)c3ccc(C)cc3)c2)cc1 [I-502]
5. O=C(O)CCc1ccc(S(=O)(=O)Nc2cccc(C(=O)Nc3cccc(C(F)(F)F)c3)c2)cc1 [I-324]

[71, 61, 57, 57, 41]

Record % Inhibition of Apyrase for all entries; do not skip any.
1. CC1CCc2c(sc(NC(=O)c3cccc(S(=O)(=O)Nc4ccc(Br)cc4)c3)c2C#N)C1 (centres unmarked) [I-9]
2. Cc1ccc(NS(=O)(=O)c2ccc(NC(=O)c3cccc(S(C)(=O)=O)c3)cc2)cc1C [I-989]
3. CC1Cc2ccccc2N1S(=O)(=O)c1cccc(C(=O)Nc2cc(F)ccc2F)c1 (centres unmarked) [I-469]
4. N#Cc1cccc(NC(=O)c2ccc(S(=O)(=O)Nc3ccccc3F)cc2)c1 [I-406]
5. Cc1ccc(NC(=O)c2cccc(S(=O)(=O)Nc3ccc4c(c3)OCO4)c2)cc1 [I-245]
6. O=C(Nc1ccccc1NS(=O)(=O)c1cccs1)c1cc(Br)ccc1F [I-835]
7. Cc1ccc(C(=O)Nc2cccc(C(=O)O)c2)cc1S(=O)(=O)Nc1ccc(Br)cc1 [I-35]
8. O=C(Nc1nc2c(s1)CCC2)c1cccc(NS(=O)(=O)c2ccc3c(c2)OCCO3)c1 [I-637]

[61, 54, 59, 30, 67, 52, 17, 57]

Record % Inhibition of Apyrase for all entries; do not skip any.
1. Cc1ccc(NC(=O)c2ccc(NS(=O)(=O)c3ccc(Br)cc3)cc2)cc1S(=O)(=O)N(C)C [I-945]
2. CCOc1ccc(NC(=O)c2ccc(NS(=O)(=O)c3ccccc3)cc2)cc1 [I-914]
3. O=C(Nc1cccc(S(=O)(=O)Nc2cccc(C(F)(F)F)c2)c1)c1ccc(Cl)nc1 [I-725]
4. CCOc1ccc(S(=O)(=O)Nc2cccc(C(=O)Nc3ccc(C)cn3)c2)cc1 [I-640]
5. O=C(Nc1ccc(N2CCOCC2)cc1)c1cccc(S(=O)(=O)Nc2ccc(Br)cc2)c1 [I-255]
6. COc1ccc(NC(=O)c2cccc(S(=O)(=O)Nc3ccc4c(c3)OCO4)c2)c(OC)c1 [I-590]
7. O=C(Nc1ccc(Br)cc1)c1cccc(S(=O)(=O)Nc2ccc(Br)cc2)c1 [I-20]

[44, 59, 57, 56, 61, 42, 45]

Record % Inhibition of Apyrase for all entries; do not skip any.
1. Cc1cccc(NS(=O)(=O)c2ccc(C(=O)Nc3cccc(C#N)c3)cc2)c1C [I-855]
2. COc1ccc(NS(=O)(=O)c2ccc(NC(=O)c3cccc(S(=O)(=O)N(C)C)c3)cc2)cc1 [I-991]

1: 82; 2: 53

Record % Inhibition of Apyrase for all entries; do not skip any.
1. O=C(Nc1ccc2c(c1)OCO2)c1ccc(NS(=O)(=O)c2cccc(F)c2)cc1 [I-953]
2. COc1ccccc1NC(=O)c1ccc(NS(=O)(=O)c2cccc(C(F)(F)F)c2)cc1 [I-919]
3. O=C(NC1CCCc2ccccc21)c1cccc(S(=O)(=O)Nc2ccc(Br)cc2)c1 (centres unmarked) [I-244]
4. Cc1ccc(NS(=O)(=O)c2ccc(C(=O)Nc3ccc(C)c(C)c3)cc2)cc1 [I-888]
5. O=C(Nc1ccccc1)c1cccc(S(=O)(=O)Nc2ccc3c(c2)OCO3)c1 [I-264]
6. Cc1nc2cc(NC(=O)c3cccc(NS(=O)(=O)c4cccs4)c3)ccc2o1 [I-664]
7. O=C(Nc1cccc(S(=O)(=O)Nc2ccc(Cl)cc2)c1)c1cnccn1 [I-775]

1. 26
2. 58
3. 68
4. 43
5. 59
6. 24
7. 3

// % Inhibition of Apyrase lookup, compound = Cc1cnc(C(=O)Nc2cccc(S(=O)(=O)Nc3cccc(C(F)(F)F)c3)c2)cn1 [I-769] , result: 7
